Consider the following molecules; for each one, report its pIC50.
tested on: Jurkat; experiment: Cell Titer Glo viability assay, Jurkat; assay type: cell-based; conditions: Homo sapiens, read-out: IC50 Cell Titer Glow Viability Jurkat
pIC50: −log10 of the molar value.

What value of measured pIC50 is listed for Cc1cc(N2CCC(NCc3cccc(N(C)C)c3)CC2)nc(N)n1 [drawing 237] ?
< 4.52

Note, next up: Cc1cc(N2CCC(NCc3cccc(-n4cccc4)c3)CC2)nc(N)n1 [drawing 236]
4.67

Note, next up: Cc1cc(N2CCC(NC(=O)c3cccc(N4CCCC4)c3)CC2)nc(N)n1 [drawing 234]
< 4.52

Note, next up: COc1cccc(CNC2CCN(c3cc(C)nc(N)n3)CC2)c1 [drawing 238]
< 4.52

Note, next up: Cc1cc(N2CCC(NCc3cccc(N4CCCCC4)c3)CC2)nc(N)n1 [drawing 235]
4.95

Note, next up: Cc1cc(N2CCC(NCc3ccc(N4CCCC4)cc3)CC2)nc(N)n1 [drawing 233]
< 4.52

Note, next up: Cc1cc(NCCCNCc2cccc(N3CCCC3)c2)nc(N)n1 [drawing 243]
< 4.52

Note, next up: Cc1cc(N2CCC(N(Cc3cccc(N4CCCC4)c3)C(=O)NC(C)C)CC2)nc(N)n1 [drawing 230]
< 4.52

Note, next up: `Cc1cc(N2CCC(NCc3cccc(-n4cccn4)c3)CC2)nc(N)n1`
< 4.52

###

system: Jurkat; test: Cell Titer Glo viability assay, Jurkat; type: cell-based; settings: Homo sapiens, read-out: IC50 Cell Titer Glow Viability Jurkat
Consider the following molecules; for each one, report its pIC50.
Bear in mind: pIC50 is minus log10 of a mol/L concentration; give just that figure.

What value of measured pIC50 is listed for Cc1cc(N2CCC[C@H](NCc3cccc(N4CCCC4)c3)C2)nc(N)n1 [drawing 242] ?
4.71

Note, next up: Cc1cc(N2CCC(NCc3cccc(N4CCCC4)c3)CC2)nc(N)n1 [drawing 228]
5.49

Note, next up: Cc1cc(N2CCC[C@@H](NCc3cccc(N4CCCC4)c3)C2)nc(N)n1 [drawing 241]
5.36
